targetDesc: SARS-CoV-2 spike protein on pseudovirus (SARS-CoV-2, UniProt P0DTC2 14-1273)
runDescription: cell-based or functional assay
Values of Neutralizing Power, SARS-CoV-2 Pseudovirus Neutralization Assay greater than or equal to 40% map to t; values below map to f.

Does the binder NCI-CoV-CLA2 (VHH) VHH: QVQLVESGGGSVQPGGSLRLSCAVSGYTSSSYCFGWFRQAPGKDREGIIAMEPGNTYTAGAVKGRFTISRDNAKNMVYLQMNSLKPDDTAMYYCAASPYPGTWLNPDLFDTWGQGTQVTVSS have recorded Neutralizing Power, SARS-CoV-2 Pseudovirus Neutralization Assay that is 40% or more?
t

Does the binder NCI-CoV-CGF10 (VHH) VHH: AVQLVESGGGLVQPGGSLRLSCAASGFTFSSYGMHWVRQAPGKGLERVAGINWDGSNSYYTETVKGRFTISRDNAKNTAYLQMNSLKPEDTAMYYCRTLILDSDCDPGSTYRYAWGQGTQVTVSS have recorded Neutralizing Power, SARS-CoV-2 Pseudovirus Neutralization Assay that is 40% or more?
f

Does the binder NCI-CoV-CG2G2 (VHH) VHH: AVQLVESGGGSVPPGGSLTLSCTVSDNIFRTYAVGWFRQAPEKRCQWIATLNADESTEYNVAVTGRFTISRDNSGRSVYLQMDNLNSEDTAIYYCASLARKWSCHDSWGRGTQVTVSS have recorded Neutralizing Power, SARS-CoV-2 Pseudovirus Neutralization Assay that is 40% or more?
t

Does the binder NCI-CoV-CL3H4 (VHH) VHH: DVQLVESGGGAVKPGGSLTLTCTVQEGSRNCVGWFRQGSGKDRQAVAMINGNGGTTNYDDRVKGRFQISRDGSLVHLRMNDVKLGDTDIYYCRQGQTYDCWGGTWTDSGWGQGTQVTVSS have recorded Neutralizing Power, SARS-CoV-2 Pseudovirus Neutralization Assay that is 40% or more?
f

Does the binder NCI-CoV-S4A9 (VNAR) VNAR: ARVDQTPRSVTKETGESLTINCVLRDASYALGSTCWYRKKSGSTNEESISKGGRYVETVNSGSKSFSLRINDLTVEDGGTYRCGVQSRWGAVPKLCSNYAACGDGTAVTVN have recorded Neutralizing Power, SARS-CoV-2 Pseudovirus Neutralization Assay that is 40% or more?
f
